System: U251 CNS
Test: NCI tumour cell line growth inhibition, 48 h
Where TGI equals or exceeds 70 µM, the correct label is condition met; where it does not, the label is condition not met.

COMPOUND	CATEGORY LABEL
c1ccc2c(Cc3nnc4sc(SSc5nn6c(Cc7c[nH]c8ccccc78)nnc6s5)nn34)c[nH]c2c1	condition not met
O=C1/C(=C2\Sc3c(ccc(Cl)c3Cl)C2=O)Sc2c1ccc(Cl)c2Cl	condition met
COc1ccc(-c2cn[nH]c2-c2cc(OC)c3c(c2)OCCO3)cc1	condition not met
COC1CC(OC(=O)c2ccccc2)C(OC(=O)c2ccccc2)C(C)O1 (stereo unspecified)	condition met
O=C1NC2(CN3CCC2CC3)C(=O)N1CN(Cc1ccccc1)c1ccccc1 (stereo unspecified)	condition met
C[C@]12CC[C@@H]3c4ccc(OC(=O)c5ccccc5)cc4CC[C@H]3[C@@H]1CC[C@@H]2Oc1c2ccccc2nc2ccccc12	condition not met
COC(=O)C1(Cc2ccccc2)Cc2ccccc2C1	condition met
CCOc1c(Cl)cc(CNC(C)C(O)c2ccccc2)cc1OC (stereo unspecified)	condition not met
Cc1cc(=O)oc2cc(O)c(CN(C)CC(=O)O)cc12	condition met
O=c1ccc(=O)c2c(=O)c3ccccc3c(=O)c1=2	condition met
